- ASSAYED_TARGET: SMARCA4 (Homo sapiens)
- Construct: endogenous in cells; host or cells: NCI-H929 (ATCC CRL-9068)
- Sequence (P51532 whole entry): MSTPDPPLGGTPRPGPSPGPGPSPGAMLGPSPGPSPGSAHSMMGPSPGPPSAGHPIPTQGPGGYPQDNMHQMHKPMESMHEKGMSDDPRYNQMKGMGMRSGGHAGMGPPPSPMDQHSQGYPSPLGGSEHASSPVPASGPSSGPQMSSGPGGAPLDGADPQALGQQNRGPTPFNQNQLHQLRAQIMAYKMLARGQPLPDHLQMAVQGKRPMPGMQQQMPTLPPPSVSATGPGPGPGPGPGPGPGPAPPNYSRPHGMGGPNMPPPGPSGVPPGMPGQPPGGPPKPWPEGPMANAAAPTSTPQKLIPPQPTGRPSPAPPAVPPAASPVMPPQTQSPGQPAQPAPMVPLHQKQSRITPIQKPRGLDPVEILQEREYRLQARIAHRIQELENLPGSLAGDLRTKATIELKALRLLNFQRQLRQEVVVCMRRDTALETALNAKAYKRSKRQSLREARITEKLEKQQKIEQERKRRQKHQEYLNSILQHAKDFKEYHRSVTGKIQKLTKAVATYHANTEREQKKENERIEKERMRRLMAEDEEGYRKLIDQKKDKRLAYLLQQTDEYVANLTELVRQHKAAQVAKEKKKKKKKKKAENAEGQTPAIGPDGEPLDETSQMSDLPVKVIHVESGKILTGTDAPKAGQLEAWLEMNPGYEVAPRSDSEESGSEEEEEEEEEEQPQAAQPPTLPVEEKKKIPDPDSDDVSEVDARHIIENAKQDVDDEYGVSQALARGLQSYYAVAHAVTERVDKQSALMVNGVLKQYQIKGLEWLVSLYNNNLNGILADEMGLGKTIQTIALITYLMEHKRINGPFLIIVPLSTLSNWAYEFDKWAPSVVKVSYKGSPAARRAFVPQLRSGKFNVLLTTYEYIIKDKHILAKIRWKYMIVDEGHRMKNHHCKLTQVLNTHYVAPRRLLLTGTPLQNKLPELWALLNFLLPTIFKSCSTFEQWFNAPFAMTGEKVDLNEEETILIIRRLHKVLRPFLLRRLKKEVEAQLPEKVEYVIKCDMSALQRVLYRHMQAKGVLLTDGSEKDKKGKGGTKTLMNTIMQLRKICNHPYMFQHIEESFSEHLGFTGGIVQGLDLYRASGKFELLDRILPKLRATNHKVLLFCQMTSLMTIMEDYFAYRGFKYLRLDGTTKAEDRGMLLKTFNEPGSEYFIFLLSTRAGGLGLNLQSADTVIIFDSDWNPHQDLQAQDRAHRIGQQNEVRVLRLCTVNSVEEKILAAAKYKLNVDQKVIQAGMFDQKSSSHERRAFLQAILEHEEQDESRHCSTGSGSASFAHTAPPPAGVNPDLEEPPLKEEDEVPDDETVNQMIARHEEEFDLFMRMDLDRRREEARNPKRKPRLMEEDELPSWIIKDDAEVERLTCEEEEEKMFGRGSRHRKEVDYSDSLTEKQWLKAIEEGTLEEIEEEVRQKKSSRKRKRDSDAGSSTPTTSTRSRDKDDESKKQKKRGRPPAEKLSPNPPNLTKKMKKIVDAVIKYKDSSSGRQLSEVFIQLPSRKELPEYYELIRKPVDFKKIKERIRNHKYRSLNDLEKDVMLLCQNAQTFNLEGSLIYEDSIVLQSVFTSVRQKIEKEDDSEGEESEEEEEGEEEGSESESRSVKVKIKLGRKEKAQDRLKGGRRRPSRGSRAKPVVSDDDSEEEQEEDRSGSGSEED
- ASSAY_TEXT: SMARCA4 degradation in H929 cells by Western blot
- Format: cell-based
- DETAILS: NCI-H929, 100 nM, 16 hours
PARAMETER: SMARCA4 percent degradation at 0.1 µM (%)
Give your result in % as a bare value.

Exercise: Tell me SMARCA4 percent degradation at 0.1 µM reported for Cc1ncsc1-c1ccc([C@H](C)NC(=O)[C@@H]2C[C@@H](O)CN2C(=O)[C@@H](NC(=O)C(C)(C)N2CCN(c3cc(-c4ccccc4O)nnc3N)CC2)C(C)(C)C)cc1
Key: 93

Exercise: Tell me SMARCA4 percent degradation at 0.1 µM reported for Cc1ncsc1-c1ccc([C@H](C)NC(=O)[C@@H]2C[C@@H](O)CN2C(=O)[C@@H](NC(=O)CC2CCN(c3cc(-c4cccc(F)c4O)nnc3N)CC2)C(C)(C)C)cc1
Key: 99

Exercise: Tell me SMARCA4 percent degradation at 0.1 µM reported for Cc1ncsc1-c1ccc([C@H](C)NC(=O)[C@@H]2C[C@@H](O)CN2C(=O)[C@@H](NC(=O)CN2CCN(c3cc(-c4cccc(F)c4O)nnc3N)CC2)C(C)(C)C)cc1
Key: 101
